Target: human Mac-1 (integrin αMβ2, CD11b/CD18) (human, UniProt P11215 17-1152; P05107 23-769)
Assay: flow cytometry, HEK293/Mac-1 cells (clone 1-4), PBS (Mock)
Hi, to clarify the labels: t covers Mock MFI from 30000 MFI upward, f covers anything below 30000 MFI.

Look over these answered cases.
binder | discrete_label
anti-Mac-1 antibody clone 25A06 (antibody, human IgG4, V domains shown) VH: EVQLVESGGGLVQPGGSLRLSCAASGFTFSSYYMSWVRQAPGKGLEWVSTINYDGSEKDYADSVKGRFTISRDNSKNTLYLQMNSLRAEDTAVYYCARDRLGNYPWFDVWGQGTLVTVSS VL: DIQMTQSPSSLSASVGDRVTITCRASQSISNYLAWYQQKPGKAPKLLIYDANNLQSGVPSRFSGSGSGTDFTLTISSLQPEDFATYYCQQSYSWPLTFGQGTKVEIK | f
anti-Mac-1 antibody clone 24G05 (antibody, human IgG4, V domains shown) VH: EVQLVESGGGLVQPGGSLRLSCAASGFTFTSYWMTWVRQAPGKGLEWVSTIVGGGGEADYADSVKGRFTISRDNSKNTLYLQMNSLRAEDTAVYYCARDYVADNHGAMDYWGQGTLVTVSS VL: DIQMTQSPSSLSASVGDRVTITCRASQGLSSYLNWYQQKPGKAPKLLIYGMSTLQSGVPSRFSGSGSGTDFTLTISSLQPEDFATYYCMQYYHWPYTFGQGTKVEIK | t
anti-Mac-1 antibody clone 25A04 (antibody, human IgG4, V domains shown) VH: EVQLVESGGGLVQPGGSLRLSCAASGFTFSFTAMHWVRQAPGKGLEWVSAIIYNGSEADYADSVKGRFTISRDNSKNTLYLQMNSLRAEDTAVYYCARANDYDHGCCDNYAMDYWGQGTLVTVSS VL: DIQMTQSPSSLSASVGDRVTITCRASQGIGSYLYWYQQKPGKAPKLLIYDASNLQSGVPSRFSGSGSGTDFTLTISSLQPEDFATYYCMQHGGWPLTFGQGTKVEIK | t

Request: Item anti-Mac-1 antibody clone 27E12 (antibody, human IgG4, V domains shown) VH: QVQLQQSGTVLARPGASVKMSCKASGYTFTSYWMHWVKQRPGQGLEWIGAIYPGNSDTSYNQKFKGKAKLTAVTSASTAYMELSSLTNEDSAVYYCTRGGGSYEFAYWGQGTTVTVSS VL: DIELTQSPAIMSASPGEKVTMTCSVSSSVSYMYWYQQKPGSSPRLLIYDTSNLASGVPARFSGSGSGTSYSLTISSMEAEDAATYYCQQWSSNPFTFGSGTKLEIK with Mock MFI of 30000 MFI or above?
Response: t

Request: Record anti-Mac-1 antibody clone 24H01 (antibody, human IgG4, V domains shown) VH: EVQLVESGGGLVQPGGSLRLSCAASGFTFNNYYMSWVRQAPGKGLEWVSIIYYDGSEADYADSVKGRFTISRDNSKNTLYLQMNSLRAEDTAVYYCARNKDIYSVYGMDYWGQGTLVTVSS VL: DIQMTQSPSSLSASVGDRVTITCRASQSISNYLAWYQQKPGKAPKLLIYATSNLQSGVPSRFSGSGSGTDFTLTISSLQPEDFATYYCQQANNTPPTFGQGTKVEIK ; criterion: Mock MFI no lower than 30000 MFI. Met?
Response: f

Request: In plain terms: is recorded Mock MFI at least 30000 MFI for anti-Mac-1 antibody clone 27A06 (antibody, human IgG4, V domains shown) VH: QVKLQQSGPELVTPGASVKISCKPSGYSFTDYNMNWVKQSNGKSLEWIGEINPNYGTTRHNQKFKGKASLTVDQSSSTAYMQLISLTSEDSAVYYCARTYDYDEDAFAYWGQGTTVTVSS VL: DIELTQSPAIMSASPGEKVTMTCSASSSVSYMHWYQQKSDTSPKRWIYDTSKLASGVPARFSGSGSGTSYSLTISSMEAEDAATYYCQQWSSNPPTFGAGTKLELK ?
Response: t
